Just for reference, patent US6737383B1 is where these values come from.

- System: corn
- Assay overview: Test B pre/postemergence corn
- Format: in vivo, Zea mays
- Experimental context: Preemergence, Rate 500 g/ha; scale of 0 to 10 where 0 is no effect and 10 is complete control
Endpoint label: Corn plant response rating
I only need the number, thanks.

For orientation, consider the following solved cases.
{"Molecule": "CC(C)N(C(=O)n1oc(=O)n(CCCCF)c1=O)c1ccc(F)cc1F", "Corn plant response rating": 9}
{"Molecule": "Cc1ccccc1-n1c(=O)on(C(=O)N(c2ccc(OC(F)(F)F)cc2)C(C)C)c1=O", "Corn plant response rating": 0}
{"Molecule": "CC(C)N(C(=O)n1oc(=O)n(-c2ccc3ccccc3c2)c1=O)c1ccc(F)cc1", "Corn plant response rating": 0}
{"Molecule": "CCC=CCn1c(=O)on(C(=O)N(c2ccccc2)C(C)C)c1=O", "Corn plant response rating": 0}
{"Molecule": "CC(C)N(C(=O)n1oc(=O)n(CC2CCC2)c1=O)c1ccc(F)cc1F", "Corn plant response rating": 3}
{"Molecule": "CC(C)N(C(=O)n1oc(=O)n(C2CCOCC2)c1=O)c1ccc(F)cc1", "Corn plant response rating": 5}
{"Molecule": "C=CCn1c(=O)on(C(=O)N(c2ccc(Cl)cc2)C(C)C2CC2)c1=O (stereo not drawn)", "Corn plant response rating": 0}
{"Molecule": "CC(C)N(C(=O)n1oc(=O)n(C(C)C(=O)c2ccccc2)c1=O)c1ccc(F)cc1F (stereo not drawn)", "Corn plant response rating": 0}

Now for a further molecule.
I am curious: what Corn plant response rating value has been reported for `CCN(C(=O)n1oc(=O)n(C2CCCCC2)c1=O)C1CCCCC1` ?
0
